- Method: solvent given as SMILES
- Study Conditions: in C1CCCCC1
Measured Metric: emission maximum (nm)
One number for each entry, in nm.

Here are 5 compounds together with their reported answers.
>  <Molecule Smiles>
Clc1cc(Cl)c([C](c2c(Cl)cc(Cl)cc2Cl)c2c(Cl)cc(-n3c4ccccc4c4ccccc43)cc2Cl)c(Cl)c1

>  <Unit Spec>
nm

>  <emission maximum>
628

$$$$
>  <Molecule Smiles>
CC1(C)CC(NCc2ccc3ccc4cccc5ccc2c3c45)CC(C)(C)N1[O]

>  <Unit Spec>
nm

>  <emission maximum>
375

$$$$
>  <Molecule Smiles>
c1ccc(N(c2ccccc2)c2ccc(-c3ncnc4ccccc34)cc2)cc1

>  <Unit Spec>
nm

>  <emission maximum>
445

$$$$
>  <Molecule Smiles>
C#Cc1ccc(C#Cc2cnc(C#Cc3ccccc3)nc2)cc1

>  <Unit Spec>
nm

>  <emission maximum>
415

$$$$
>  <Molecule Smiles>
COc1cccc(C2=c3c(c4ccc(C(C)(C)C)cc4c4cc(C(C)(C)C)ccc34)=[N+]3C2=C(c2ccccc2)c2c(-c4cccc(OC)c4)c4c5ccc(C(C)(C)C)cc5c5cc(C(C)(C)C)ccc5c4n2[B-]3(F)F)c1

>  <Unit Spec>
nm

>  <emission maximum>
727

$$$$

Let us move to another entry and its emission maximum.
Q) Look at this compound and give its reported emission maximum. CC(C)[Si]1(C(C)C)c2cc(N(C)C)ccc2-c2ccc(C(F)(F)F)cc21
A) 402

The measured values listed here are drawn from the Deep4Chem optical property database.
